study target: 5-HT3AB receptor (Homo sapiens, UniProt O95264+P46098, O95264:Y146A)
method summary: two-electrode voltage clamp, Xenopus oocytes
measured quantity: pEC50
Numbers only, as −log10 of the molar value.

Query string: Observed pEC50 on 5-HT3AB receptor (Homo sapiens, UniProt O95264+P46098, O95264:Y146A) for N=C(N)NC(=N)Nc1cccc(Cl)c1 [mCPBG] , please.
Result string: 5.37

----------
study target: 5-HT3AB receptor (Homo sapiens, UniProt O95264+P46098, O95264:E122A)
Sequence (P46098 24-478): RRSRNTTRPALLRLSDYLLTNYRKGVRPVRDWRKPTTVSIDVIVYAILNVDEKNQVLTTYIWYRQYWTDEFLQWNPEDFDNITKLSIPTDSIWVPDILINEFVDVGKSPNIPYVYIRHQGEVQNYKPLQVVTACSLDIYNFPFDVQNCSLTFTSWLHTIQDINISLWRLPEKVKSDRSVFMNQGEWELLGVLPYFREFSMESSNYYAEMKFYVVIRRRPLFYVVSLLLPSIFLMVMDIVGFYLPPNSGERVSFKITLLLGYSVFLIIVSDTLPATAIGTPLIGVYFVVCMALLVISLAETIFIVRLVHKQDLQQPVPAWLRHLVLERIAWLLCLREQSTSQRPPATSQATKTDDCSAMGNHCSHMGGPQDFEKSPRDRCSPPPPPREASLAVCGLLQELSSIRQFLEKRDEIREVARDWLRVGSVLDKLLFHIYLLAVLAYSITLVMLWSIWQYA
Sequence (O95264 22-441 E122A): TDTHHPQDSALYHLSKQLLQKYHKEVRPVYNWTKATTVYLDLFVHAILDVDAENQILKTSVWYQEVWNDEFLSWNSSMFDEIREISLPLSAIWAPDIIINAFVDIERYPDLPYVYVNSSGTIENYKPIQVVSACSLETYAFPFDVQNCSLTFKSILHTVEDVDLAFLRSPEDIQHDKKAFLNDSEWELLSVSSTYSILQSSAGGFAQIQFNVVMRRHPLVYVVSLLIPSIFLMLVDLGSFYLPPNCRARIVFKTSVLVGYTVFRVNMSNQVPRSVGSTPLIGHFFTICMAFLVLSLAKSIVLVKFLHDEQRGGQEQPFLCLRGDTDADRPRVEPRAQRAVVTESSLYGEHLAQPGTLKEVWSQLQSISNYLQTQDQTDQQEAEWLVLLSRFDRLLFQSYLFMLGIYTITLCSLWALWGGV
method summary: two-electrode voltage clamp, Xenopus oocytes
measured quantity: EC50 (nM)
Give bare numbers, in nM.

Query string: Fill in: EC50 of N=C(N)NC(=N)Nc1cccc(Cl)c1 is ___
Result string: 2400
